- Test system: MS2 coat protein
- ASSAY TEXT: apparent KD of MS2 coat protein; higher = weaker reporter binding
- STUDY CONDITIONS: Eterna round: R107; input ligand: theophylline 20 uM
Listed sequences paired with reported apparent KD of MS2 coat protein
Report the figure in nM without appending any unit label.

For orientation, consider the following solved cases.
SEQUENCE CODE	METRIC NAME	MEAS VALUE
GGACUAACCAGAAGGAGCGGCACGCAGAAACUGCAAAAUCCUCCACACGAGGAUCACCCGUGUCAGGUAGGUCGCUGGUUAGUCG	apparent KD of MS2 coat protein	55
ACAUGAGGAUCACCCAUGUAGCCUAGGGAAGGAGCGUCGUAAGAGACAGGUAGGUCGCCCGCAUGUGGAUCACCCAUGUCGAGGG [SSArg A #11]	apparent KD of MS2 coat protein	48.3
UUCUUUAAGUCGGCCGCCACUGAAACAUGAGGAUCACCCAUGUAUAUUUGUGUAAAGGUGGAUUACAGGACCGGGACUAUAGUAA [JR_Nu23_ExcTryptoB_Sub024]	apparent KD of MS2 coat protein	13.6

Given CUUAUACAUGAGGAUCACCCAUGUGGUGAUACCAGCCACGAUCAAGGCCCUUGGCAGCACAAAGGGAAUAAUAUGAUUACAAAAC [theeternabot_sameState_MS2_Theo_A_6] , state its recorded apparent KD of MS2 coat protein.
566

Given AUGCAUAGCCGAAGGAGCGCAGUAGGAUGACAUGAGGAUCACCCAUGUGUGUGAUGUGGAUUGCAGGUAGGUCGCGGAGUGGUAU [Exclusion - Arginine B (Freestyle 5)] , state its recorded apparent KD of MS2 coat protein.
128
